target: HLA-A*26:01; test: IEDB peptide-MHC binding, purified MHC/competitive/fluorescence; filed as Kd, often an IC50 or EC50 that approximates it; bounds were set here for any values at or beyond the usual limits of such assays; details: source organism: Listeria monocytogenes EGD-e
PROPERTY LABEL: Kd

Task: Answer with reported Kd of LAIVTTPLV
Output: ≥ 20 µM

* * *

target: HLA-B*27:03; assay: IEDB peptide-MHC binding, purified MHC/direct/fluorescence; filed as Kd, often an IC50 or EC50 that approximates it; bounds were set here for any values at or beyond the usual limits of such assays; conditions: source organism: Vibrio cholerae O1 biovar El Tor
PROPERTY LABEL: Kd

Task: Answer with reported Kd of FATPAFFLI
Output: ≥ 20 µM

Sourced from the Immune Epitope Database (IEDB)
